The measurements presented in this section are drawn from PubChem BioAssay (NCI).

Test system: SF-295 CNS
test_protocol: NCI tumour cell line growth inhibition, 48 h; in the data active means GI50 below about 0.43 µM; inactive means the rest
# output must be one of 1 for active, 0 for inactive

Consider the following illustrative entries.
• CCc1c2c(nc3cccc(N)c13)-c1cc3c(c(=O)n1C2)COC(=O)[C@]3(O)CC = 1
• S=c1ssc(Sc2ccccn2)c1Cl = 0
• CC1=CC(=O)C(C(C)=Nc2ccccc2Cl)C(=O)O1 (centres undefined) = 0

Would you mind telling me which call this test gave CC(=O)C1=C([O-])C(C)OC1=O.CC(=O)C1=C([O-])C(C)OC1=O.[NH-]C1CCCC[C@H]1[NH-].[Pt+4] (centres undefined) ?
0

Same question for CCOC(=O)N1CCN(S(=O)(=O)c2oc(-c3ccc(Cl)cc3)nc2C#N)CC1 please.
0

// query: COC(=O)[C@@H]1CCCN1C(=O)[C@@H]1CCCN1C(=O)[C@@H](Cc1c[nH]c2ccccc12)NC(=S)Nc1cc(C(F)(F)F)cc(C(F)(F)F)c1
0

Request: Nc1nc(Nc2cccc(F)c2)nc2ccccc12
0

Now give it for Cc1cn2c(/C=N/N/C(N)=N\N)c(-c3ccc(Cl)c([N+](=O)[O-])c3)nc2s1 too.
0

And then CN(C)c1ccc(N=Nc2c([O-])ccc3ccccc23)cc1.[C-]#[O+].[C-]#[O+].[Ir] , what is it?
0

Try this compound next: C[C@H](CS(C)(=O)=O)Nc1ncc2cc(Oc3ccc(F)cc3F)c(=O)n(C)c2n1
0

And for Cc1c(C)c2ccc(OC/C=C3\CCC(=O)O3)cc2oc1=O ?
0

====

System: EKVX NSCLC
test_protocol: NCI tumour cell line growth inhibition, 48 h
assay_metric: TGI (µM)
Kindly provide the numeric value in µM only, without the unit symbol.

• Cc1cccc(Nc2cn(CCOc3ccccc3)c(=O)n(CCOc3ccccc3)c2=O)c1 = 96.9

If you can, please state the reported TGI value of CCC1CN2CCc3cc(OC)c(OC)cc3C2CC1CC1c2cc(OC)c(OC)cc2CCN1C(=O)CNC(=O)OC(C)(C)C (centres undefined) .
32.9

Next molecule up: CC(C)(Br)C(=O)/C=C/c1ccccc1
23

# iterate: Cc1ccc(-n2cnc3c(N/N=C4\SCC(=O)N4c4ccccc4)ncnc32)cc1
29

How about Cc1ccc2c(c1)ncn2-c1ncnc2c1CC(C)c1ccccc1N2C (centres undefined) ?
18

Next record, please: CC1CC[C@@]2(OC1)OC1C[C@H]3[C@@H]4CC[C@H]5CC(OC6OC(CO)C(OC7OC(CO)C(O)C(O)C7O)C(O)C6O)CCC5(C)[C@H]4CCC3(C)C1[C@@H]2C (some centres undefined)
12.2

Query COC(=O)[C@@]12OC[C@]34C([C@@H](O)C1O)[C@@]1(C)CC(=O)C(O)=C(C)C1C[C@H]3OC(=O)[C@H](OC(=O)CC(C)C(F)(F)F)[C@H]42 (some centres undefined) next
0.999

Proceed to C/C=C(/CCCCNCCCC)[Si](C)(C)C
25.8

====

The compounds listed here are annotated with their TGI.
System: EKVX NSCLC
test_protocol: NCI tumour cell line growth inhibition, 48 h

- CC(C)=CC(=O)CC(=O)C(=O)Nc1ccc(Cl)c(Cl)c1: > 100 µM

Give the measured TGI of Cc1cc(C)c(C)c(-n2[nH]c(=O)n(C)c2=O)c1C .
> 100 µM

// next record Cc1cc(C2(c3cc(C)c(O)c(C(=O)O)c3)OS(=O)(=O)c3ccccc32)cc(C(=O)O)c1O
> 100 µM

Same thing, different compound: C=C[C@]1(C)C=C2C(=O)[C@@]3(O)OC[C@@]4(CCCC(C)(C)C43O)C2(O)C(O)C1 (some centres undefined)
31.3 µM
